Recorded values, source patent US5075299A.

test system: Citrobacter froindii GN346; assay: antibacterial activity, agar dilution method; type: cell-based; conditions: Citrobacter froindii GN346; agar dilution method; read-out: Antibacterial Activity MIC
experimental endpoint: MIC (µg/mL)
Unit µg/mL implied. Number only.

Cc1cc(=O)c(O)c(CO/N=C(\C(=O)NC2C(=O)N3C(C(=O)O)=C(CSc4cnns4)CSC23)c2csc(N)n2)n1O (stereo not shown): 6.25
CO/N=C(\C(=O)N[C@@H]1C(=O)N2C(C(=O)O)=C(COC(C)=O)CS[C@H]12)c1csc(N)n1 [CTX, reference compound]: 12.5
Cc1c(O)c(=O)cc(CO/N=C(\C(=O)NC2C(=O)N3C(C(=O)O)=C(CSc4nnnn4C)CSC23)c2csc(N)n2)n1O (stereo not shown): 6.25

For the next question, use this compound.
Name the recorded MIC for Cc1c(O)c(=O)cc(CO/N=C(\C(=O)NC2C(=O)N3C(C(=O)O)=C(CSc4cnns4)CSC23)c2csc(N)n2)n1O (stereo not shown) .
6.25
